For each of the compounds below, state its growth.
System: NCI/ADR-RES ovarian
protocol notes: NCI-60 one-dose screen, 48 h (100 = growth as untreated, 0 = no growth, -100 = all killed)
condition: 10 µM unless noted
Protocol: Growth inhibition of the NCI/ADR-RES human […] tumor cell line is measured as a screen for anti-cancer activity. Cells are grown in 96 well plates and exposed to the test compound for 48 hours. Compounds are tested at a single concentration, which is 10^-5 M for most compounds. The reported endpoint is percent growth (GI% or GIPRCNT), where numbers from 0 - 100% represent growth inhibition, and numbers from -100% - 0 represent cell death. For example, a value of 40 represents 60% growth inhibition. […]
About 83,000 compounds went through this panel and 20% of them were active in at least one assay; those are over-represented in the sample as a whole.
Answers are plain numbers, in %.

Worked set:
CN1CCN(C)c2cncc(Br)c2C1=O | 98.3
Cc1nn2c(-c3nc4ccc(Cl)cc4[nH]3)c(-c3ccc(F)cc3)nc2s1 | 96.4

Parameters: items (list). Returns: growth for each item.
1. ONc1nc(NO)c2[nH]cnc2n1
2. Cc1oc2c(c1C(=O)N1CC[C@@H](N)C1)C(=O)c1c(c(O)c3ccccc3c1O)C2=O

Solution:
[74.7, 8.79]

Parameters: items (list). Returns: growth for each item.
1. Cc1cc(=O)[nH]n1-c1cc(Cl)ccc1N
2. COc1ccc(-n2ncc3c4nc(OC)c(S(=O)(=O)c5ccccc5)cc4ccc32)cc1

Solution:
1. 90.6
2. 73.4

* * *

For each of the compounds below, state its growth.
System: SK-MEL-5 melanoma
protocol notes: NCI-60 one-dose screen, 48 h (100 = growth as untreated, 0 = no growth, -100 = all killed)
condition: 10 µM unless noted
Compounds without any hit were thinned out: in the full panel of roughly 83,000, 20% have a hit. Active and inactive are the calls of the source. Rule for the calls: active = growth percent below 10; inactive = the rest.

Worked set:
COc1ccc(C2OCC(C)(C)CO2)cc1OC | 96.5% (inactive)
Cc1nc(-c2ccccc2)cc2c(O)c(C(=O)N/N=C/Cc3ccccc3)[nH]c(=O)c12 | 107% (inactive)
CCC(=O)Nc1nnc(Cc2ccc(OC)c(OC)c2)s1 | 46.6% (inactive)
O=c1[nH]c(=S)c2c(n1CCCO)CCC2 | 101% (inactive)
Clc1ccccc1Nc1ccc2nnc(-c3ccncc3)n2n1 | 97.9% (inactive)
COC(=O)c1c2c(c(C)[n+]([O-])c1C)C(=O)C=C(NCc1ccc(Cl)cc1)C2=O | -98.8% (active)
O=c1ccc2ccccc2o1 | 107% (inactive)
Nc1cccc2c(=S)c3ccccc3[nH]c12 | 91.4% (inactive)
O=C1CCC(N2Cc3c(C#CCCCNC(=O)c4cc5c(o4)C(=O)c4ccccc4C5=O)cccc3C2=O)C(=O)N1 (stereo not given) | -99.2% (active)
Cc1cc(NS(=O)(=O)c2ccc(NC(=O)COc3ccc(-c4cc5ccccc5[nH]4)cc3)cc2)no1 | 12.4% (inactive)

Parameters: items (list). Returns: growth for each item.
1. CCN1CCN(c2ccc(Nc3ncc4ccc5ncn(C(C)C)c5c4n3)nc2)CC1
2. O=C(CCCCCCC(=O)Nc1ccc2c(c1)/C(=C/c1ccc[nH]1)C(=O)N2)NO
3. O=C1/C(=C/c2ccc(Cl)cc2)CN(Cc2cn(CCCNc3ccnc4cc(Cl)ccc34)nn2)C/C1=C\c1ccc(Cl)cc1
4. COc1ccc(S(=O)(=O)c2ccc(C(N)=O)cc2)cc1NC(=O)c1[nH]c(C)c2c1CCCCC2=O
5. Cc1c(NCC(=O)Nc2nc3ccccc3[nH]2)c(=O)n(-c2ccccc2)n1C

Solution:
1. -8.75% (active)
2. -75% (active)
3. -86.2% (active)
4. 48.5% (inactive)
5. 100% (inactive)

Parameters: items (list). Returns: growth for each item.
1. O=C(C[Si](CC(=O)c1cccc(C(F)(F)F)c1)CC(=O)c1cccc(C(F)(F)F)c1)c1cccc(C(F)(F)F)c1
2. COc1cc(/C=C/C(=O)C(=Cc2ccc(F)c(F)c2)C(=O)/C=C/c2ccc(O)c(OC)c2)ccc1O
3. CC1SC(c2cccc(Oc3ccccc3)c2)N(CCc2cccs2)C1=O (stereo not given)
4. O=C1C2CC3C(CC2C(=O)[N]1[Sn]([c]1ccccc1)([c]1ccccc1)[c]1ccccc1)C1(Cl)C(Cl)=C(Cl)C3(Cl)C1(Cl)Cl (stereo not given)
5. Cc1c(C(=O)Nc2nc(-c3ccccc3)cs2)nnn1-c1cccc2ccccc12

Solution:
99.8% (inactive)
40.9% (inactive)
-100% (active)
-93.1% (active)
-2.94% [50 µM] (active)

* * *

System: HS 578T breast
protocol notes: NCI-60 one-dose screen, 48 h (100 = growth as untreated, 0 = no growth, -100 = all killed)
condition: 10 µM unless noted
About 83,000 compounds went through this panel and 20% of them were active in at least one assay; those are over-represented in the sample as a whole.
For each of the compounds below, state its growth.
One number for each entry, in %.

Worked set:
COc1cc(OCc2cccc(-c3ccc(C(O)c4nccs4)cc3)c2C)cc(OC)c1C=O (configuration not stated) | 67.1
COc1cc(/C=C/C(=O)CC(=O)/C=C/c2cc(Br)c(OC)c(OC)c2)cc(Br)c1OC | 113
O=C(Nc1ccc(F)cc1)c1ccc(C(=O)Nc2ccc(F)cc2)cc1 | 106
O=C(c1cnn2c1NC(c1ccc(F)cc1)C2)N1CCCCC1 (configuration not stated) | 99.8

Parameters: items (list). Returns: growth for each item.
1. Cc1ccc(C2SCC(=O)N2NC(=O)c2[nH]c3ccc(F)cc3c2-c2ccccc2)cc1 (configuration not stated)
2. O=C(CC(O)c1ccccc1)Nc1ccccn1 (configuration not stated)

Solution:
[95.3, 106]

Parameters: items (list). Returns: growth for each item.
1. CCOC(=O)c1c(Cl)c2c(n1Cc1ccc(OC)cc1)-c1oncc1CCC2
2. NC(=O)c1cc(Cl)ccc1NC(=O)COc1ccccc1
3. Cc1oc2c(c1C(=O)N1CC[C@@H](N)C1)C(=O)c1c(c(O)c3ccccc3c1O)C2=O

Solution:
1: 67.4; 2: 54.7; 3: 34.3

* * *

For each of the compounds below, state its growth.
Tested on: UACC-62 melanoma
protocol notes: NCI-60 one-dose screen, 48 h (100 = growth as untreated, 0 = no growth, -100 = all killed)
condition: 10 µM unless noted
The panel holds about 83,000 compounds, 20% with a hit somewhere; the sample as a whole holds those more often. Calls of active or inactive are those of the source. The calls were made as follows: active = growth percent below 10; inactive = the rest.

Worked set:
CC(C)N1CCN(c2ccc(OC[C@H]3CO[C@](Cn4cncn4)(c4ccc(Cl)cc4Cl)O3)cc2)CC1 | 71.6% (inactive)
Cc1ccc(S(=O)(=O)N2CCc3ccc(O)c4c3C2Cc2ccc3c(c2-4)OCO3)cc1 (centres undefined) | 22.1% (inactive)
COc1cc(/C=C/C(=O)C2=C(/C=C/c3ccc(O)c(OC)c3)NC(=O)NC2c2ccc(O)c(OC)c2)ccc1O (centres undefined) | 94.2% (inactive)
COc1ccc(OC)c(C2C(C#N)=C(N)Oc3cc(O)ccc32)c1 (centres undefined) | 91.9% (inactive)

Parameters: items (list). Returns: growth for each item.
1. CCC(C)Oc1cc(/C=N/NC(=O)c2cnn3c2NC(c2ccccc2)C3)ccc1OC (centres undefined)
2. COc1cc(CNCCCN2C(=O)c3ccc4c5c(ccc(c35)C2=O)C(=O)N(CCCNCc2cc(OC)c(OC)c(OC)c2)C4=O)cc(OC)c1OC
3. O=C1Nc2ccc(Cl)cc2/C1=N/N=C(c1ccccc1)c1ccccc1

Solution:
["36% (inactive)", "-90.2% (active)", "84.6% (inactive)"]

Parameters: items (list). Returns: growth for each item.
1. O=C1CCC(N2C(=O)c3cccc(NCCOCCOCCNC(=O)c4cc5c(o4)C(=O)c4ccccc4C5=O)c3C2=O)C(=O)N1 (centres undefined)
2. O=c1oc2ccccc2cc1-c1csc(N/N=C/c2cc3ccccc3nc2Cl)n1

Solution:
-81.8% (active)
91.8% (inactive)

* * *

Test system: NCI-H522 lung
protocol notes: NCI-60 one-dose screen, 48 h (100 = growth as untreated, 0 = no growth, -100 = all killed)
condition: 10 µM
Compounds without any hit were thinned out: in the full panel of roughly 83,000, 20% have a hit.
growth below 70% gives FALSE; growth at or above it gives TRUE.

Problem: Kindly determine if growth recorded for "CCCCCCCCCCCCCCCC[N+]1(C)CCOCC1" is above or exactly 70%.
Solution: FALSE

* * *

Tested on: MDA-MB-435 melanoma
protocol notes: NCI-60 one-dose screen, 48 h (100 = growth as untreated, 0 = no growth, -100 = all killed)
condition: 10 µM unless noted
About 83,000 compounds went through this panel and 20% of them were active in at least one assay; those are over-represented in the sample as a whole.
growth below 60% gives No; growth at or above it gives Yes.

Completed entries (count: 3):
Cc1oc2c(c1C(=O)N1CC[C@@H](N)C1)C(=O)c1c(c(O)c3ccccc3c1O)C2=O | No
CC(C)(C)[Si](C)(C)OC1[C@@H](CNC(=O)NC(=O)CCl)O[C@@H](n2cnc3c(N)ncnc32)[C@H]1O[Si](C)(C)C(C)(C)C (stereo partly specified) | No
COc1ccc(NC(=O)COc2ccccc2)c(C(N)=O)c1 | No

Problem: Kindly determine if growth recorded for "Cc1ccc(C)c2c1sc1nc3nc4sc5ccccc5n4c(=N)c3c(=O)n12" is above or exactly 60%.
Solution: Yes
